Cited source: patent US20260209325A1

Biological target: T1, recombinant human latent myostatin (human, UniProt O14793 24-375, biotinylated (in the Octet pH assay only))
T1 construct: also called biotinylated human latent myostatin
Test: BLI Octet Red384, biotin human latent myostatin on streptavidin tips
readout: fold difference in off-rate (Kd at pH 5.5 / Kd at pH 7.4) (fold)
Answers are plain numbers, in fold.

Ab130 (antibody, human IgG4 S228P, kappa, V domains shown) VH: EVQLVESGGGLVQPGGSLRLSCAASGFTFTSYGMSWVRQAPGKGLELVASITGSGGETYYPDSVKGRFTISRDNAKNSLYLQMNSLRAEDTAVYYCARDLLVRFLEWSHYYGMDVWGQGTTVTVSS VL: DIVMTQSPLSLPVTPGEPASISCRSSQSLLHSSGHNFLHWYLQKPGQSPQLLIYETSNRAPGIPDRFSGSGSGTDFTLKISRVEAEDVGVYYCQQATQFPRPFGGGTKVEIKR: 10.6

Go through the items and report each one's fold difference in off-rate (Kd at pH 5.5 / Kd at pH 7.4).
1. Ab131 (antibody, human IgG4 S228P, kappa, V domains shown) VH: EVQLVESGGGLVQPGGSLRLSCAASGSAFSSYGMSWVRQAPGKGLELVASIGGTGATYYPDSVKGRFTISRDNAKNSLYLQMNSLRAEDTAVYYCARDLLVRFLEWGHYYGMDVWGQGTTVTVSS VL: DIVMTQSPLSLPVTPGEPASISCRSSQSLLHSSGYNFLHWYLQKPGQSPQLLIYAASSRAPGIPDRFSGSGSGTDFTLKISRVEAEDVGVYYCQHGGQGPTFGGGTKVEIKR
2. Ab133 (antibody, human IgG4 S228P, kappa, V domains shown, human IgG4 in the EM experiment; also called Ab133 Human IgG4) VH: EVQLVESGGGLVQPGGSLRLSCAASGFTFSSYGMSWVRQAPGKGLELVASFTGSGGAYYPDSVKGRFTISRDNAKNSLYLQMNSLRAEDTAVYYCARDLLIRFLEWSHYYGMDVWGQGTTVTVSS VL: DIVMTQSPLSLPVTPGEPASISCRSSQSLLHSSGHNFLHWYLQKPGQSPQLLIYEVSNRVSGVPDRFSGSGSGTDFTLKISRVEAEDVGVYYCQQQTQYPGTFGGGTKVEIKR

[reply]
[0.9, 17.5]
